# credit: patent US20250120967A1

# ASSAY SYSTEM: UniProt:Q06187
# Sequence (Q06187 whole entry): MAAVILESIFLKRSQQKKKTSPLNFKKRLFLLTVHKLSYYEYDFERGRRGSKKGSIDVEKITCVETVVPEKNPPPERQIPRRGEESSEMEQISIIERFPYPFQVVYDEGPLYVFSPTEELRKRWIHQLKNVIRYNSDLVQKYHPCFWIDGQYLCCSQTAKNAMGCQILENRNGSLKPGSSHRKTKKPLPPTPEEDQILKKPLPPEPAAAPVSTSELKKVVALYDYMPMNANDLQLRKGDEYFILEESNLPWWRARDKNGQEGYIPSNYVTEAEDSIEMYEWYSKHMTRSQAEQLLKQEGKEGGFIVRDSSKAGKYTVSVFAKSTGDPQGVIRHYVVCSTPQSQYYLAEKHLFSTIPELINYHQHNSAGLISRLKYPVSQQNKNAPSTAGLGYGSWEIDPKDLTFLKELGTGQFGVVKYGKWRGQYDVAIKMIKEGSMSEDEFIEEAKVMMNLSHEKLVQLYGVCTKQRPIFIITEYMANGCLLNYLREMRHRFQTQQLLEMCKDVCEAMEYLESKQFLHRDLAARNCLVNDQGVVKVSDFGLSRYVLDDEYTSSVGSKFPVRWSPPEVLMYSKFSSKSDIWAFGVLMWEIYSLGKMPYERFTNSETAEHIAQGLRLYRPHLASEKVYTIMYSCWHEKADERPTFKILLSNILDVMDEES
# TEST METHOD NOTES: Tyrosine kinase inhibition assay
# Type: biochemical
# ASSAY SETUP: read-out: IC50 of compound
TEST READOUT: IC50 (µM)
Quick reminder: number only, in µM, skip the unit.

Worked set:
[
  {
    "COMPOUND": "CNC(=O)c1cc2c(Oc3ccc(NC(=O)C4(C(=O)Nc5ccc(F)cc5)CC4)cc3)ccnc2cc1OC [Zanzalintinib, reference compound]",
    "UNIT DESCRIPTOR": "µM",
    "ASSAY VALUE": 0.111
  },
  {
    "COMPOUND": "COc1cc2nccc(Oc3ccc(NC(=O)C4(C(=O)Nc5ccc(F)cc5)CC4)cc3)c2cc1OC [Cabozantinib, reference compound]",
    "UNIT DESCRIPTOR": "µM",
    "ASSAY VALUE": 0.172
  }
]

Shifting focus to the compound that follows.
What value of IC50 has been reported for the following compound? COc1cc2nccc(Oc3ccc(NC(=O)C4(C(=O)Nc5ccc(F)cc5)CC4)cc3F)c2cc1Oc1ccc(N)cc1F [Cbo-23]
0.00901
